Target: UDP-N-acetylbacillosamine N-acetyltransferase (Campylobacter jejuni subsp. jejuni serotype O:2 (strain ATCC 700819 /NCTC 11168))
Sequence (whole entry): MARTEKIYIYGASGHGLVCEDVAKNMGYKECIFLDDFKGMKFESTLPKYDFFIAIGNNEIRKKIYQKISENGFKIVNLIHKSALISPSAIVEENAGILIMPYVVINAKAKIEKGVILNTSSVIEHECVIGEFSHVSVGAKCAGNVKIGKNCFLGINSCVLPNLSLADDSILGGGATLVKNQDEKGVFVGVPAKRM
Assay: Binding affinity to Campylobacter jejuni NCTC 11168 PglD acetyltransferase expressed in Escherichia coli BL-21(DE3) strain (Stratagene) assessed as change in melting temperature at 100 uM by Sypro orange dye-based differential scanning fluorimetry
In this section we review reported ΔTm values for a set of compounds.
observed.property: ΔTm (°C)

>  <smiles.data>
CNc1nc(CCc2ccccc2)nc2cc(C(=O)O)sc12

>  <measurement.units>
°C

>  <result>
4.8

$$$$
>  <smiles.data>
Cc1c(C(=O)O)sc2nc(CCc3ccccc3)nc(NCCc3ccncc3)c12

>  <measurement.units>
°C

>  <result>
12

$$$$
>  <smiles.data>
CC(=O)Nc1ccc(CCc2nc(NCCc3ccccn3)c3c(C)c(C(=O)O)sc3n2)cc1

>  <measurement.units>
°C

>  <result>
11.5

$$$$
>  <smiles.data>
Cc1c(C(=O)O)sc2nc(CCc3ccccc3)nc(NCCc3ccccn3)c12

>  <measurement.units>
°C

>  <result>
12.5

$$$$
>  <smiles.data>
CNc1nc(CCc2ccccc2)nc2sc(C(=O)O)c(C)c12

>  <measurement.units>
°C

>  <result>
7.4

$$$$
>  <smiles.data>
CO[C@H](CNc1nc(C[C@H](C)c2ccccc2)nc2sc(C(=O)O)c(C)c12)c1ccccc1

>  <measurement.units>
°C

>  <result>
10.4

$$$$
>  <smiles.data>
CNc1nc(CCCc2ccccc2)nc2sc(C(=O)O)c(C)c12

>  <measurement.units>
°C

>  <result>
7.9

$$$$
>  <smiles.data>
CNc1nc(CCc2cccc(OC)c2)nc2cc(C(=O)O)sc12

>  <measurement.units>
°C

>  <result>
5.9

$$$$
>  <smiles.data>
Cc1c(C(=O)O)sc2nc(CCc3ccccc3)nc(NCCc3cccnc3)c12

>  <measurement.units>
°C

>  <result>
12

$$$$
>  <smiles.data>
CNc1nc(CCCCc2ccccc2)nc2sc(C(=O)O)c(C)c12

>  <measurement.units>
°C

>  <result>
7.4

$$$$

====

molecular target: UDP-N-acetylbacillosamine N-acetyltransferase (Campylobacter jejuni subsp. jejuni serotype O:2 (strain ATCC 700819 /NCTC 11168), UniProt Q0P9D1); test: Competitive inhibition of Campylobacter jejuni NCTC 11168 PglD acetyltransferase expressed in Escherichia coli BL-21(DE3) strain (Stratagene) assessed as release of CoASH preincubated for 30 mins followed by addition of UDP-4-aminosugar and 5 fold excess AcCoA as substrate by Ellman's method

>  <smiles.data>
COc1cc(CCNc2nc(CCc3ccccc3)nc3sc(C(=O)O)c(C)c23)cc(OC)c1

>  <measurement.units>
nM

>  <IC50>
1400

$$$$

====

target: UDP-N-acetylbacillosamine N-acetyltransferase (Campylobacter jejuni subsp. jejuni serotype O:2 (strain ATCC 700819 /NCTC 11168)); test: Inhibition of Campylobacter jejuni NCTC 11168 PglD acetyltransferase expressed in Escherichia coli BL-21(DE3) strain (Stratagene) assessed as release of CoASH preincubated for 45 mins followed by addition of AcCoA and UDP-4-aminosugar measured after 30 mins by fragment-based high-throughput screening analysis
pIC50: −log10 of the molar value.
observed.property: pIC50

>  <smiles.data>
Cc1c(C(=O)O)sc2nc(C(C)C)[nH]c(=O)c12

>  <result>
3.91

$$$$
>  <smiles.data>
Cc1c(C(=O)O)sc2nc[nH]c(=O)c12

>  <result>
3.07

$$$$
>  <smiles.data>
Cc1c(C(=O)O)sc2nc(/C=C/c3ccc4[nH]ccc4c3)[nH]c(=O)c12

>  <result>
6.00

$$$$
>  <smiles.data>
O=C(O)c1cc(-c2ccco2)[nH]n1

>  <result>
2.08

$$$$

Numbers sourced from ChEMBL document CHEMBL4004839.
